Where do these numbers come from? They come from patent US20100234390A1.

Test system: S. aureus MRO 00055
test protocol: Agar dilution MIC
Assay type: cell-based, Staphylococcus aureus
assay setup: 35° C., 16-20 hours
Listed below: Antimicrobial Screening (MIC) values for each entry.
Quick reminder: number only, in µg/mL, skip the unit.

Below: 5 compounds and their reported Antimicrobial Screening (MIC).
INSERT INTO assay_data (compound, scale_unit, readout_number) VALUES
  ('COC(=S)NC[C@H]1CN(c2ccc(N3CCN(C(=O)C=Cc4ccc([N+](=O)[O-])o4)CC3)c(F)c2)C(=O)O1 [Example 40]', 'µg/mL', 0.25),
  ('COC(=S)NC[C@H]1CN(c2ccc(N3CCN(C(=S)n4ccnc4)CC3)c(F)c2)C(=O)O1 [Example 76]', 'µg/mL', 0.5),
  ('COC(=S)NC[C@H]1CN(c2ccc(N3CCN(C(=O)c4ccc([N+](=O)[O-])o4)CC3)c(F)c2)C(=O)O1 [Example 7]', 'µg/mL', 0.25),
  ('COC(=S)NC[C@H]1CN(c2ccc(N3CCN(C(=O)c4ccno4)CC3)c(F)c2)C(=O)O1 [Example 44]', 'µg/mL', 0.5),
  ('COC(=S)NC[C@H]1CN(c2ccc(N3CCN(C(=O)c4cccnc4)CC3)c(F)c2)C(=O)O1 [Example 2]', 'µg/mL', 1);

# input compound: COC(=S)NC[C@H]1CN(c2ccc(N3CCN(C(=O)CNS(C)(=O)=O)CC3)c(F)c2)C(=O)O1 [Example 43] ; wanted: its Antimicrobial Screening (MIC)
0.5

# repeat for COC(=S)NC[C@H]1CN(c2ccc(N3CCN(C(=O)c4ccc(N)nc4)CC3)c(F)c2)C(=O)O1 [Example 37]
0.5

###

Tested on: S. aureus MRO 002053
test protocol: Agar dilution MIC
Type: cell-based, Staphylococcus aureus
assay setup: 35° C., 16-20 hours
metric: Antimicrobial Screening (MIC)
Remember to put the unit after the number in your answer.

Below: 3 compounds and their reported Antimicrobial Screening (MIC).
INSERT INTO measurements (compound, metric, result) VALUES
  ('COC(=S)NC[C@H]1CN(c2ccc(N3CCN(C(=O)c4cccnc4)CC3)c(F)c2)C(=O)O1 [Example 2]', 'Antimicrobial Screening (MIC)', '1 µg/mL'),
  ('COC(=S)NC[C@H]1CN(c2ccc(N3CCN(C(=O)c4ccc(N)nc4)CC3)c(F)c2)C(=O)O1 [Example 37]', 'Antimicrobial Screening (MIC)', '0.25 µg/mL'),
  ('COC(=S)NC[C@H]1CN(c2ccc(N3CCN(C(=O)C=Cc4ccc([N+](=O)[O-])o4)CC3)c(F)c2)C(=O)O1 [Example 40]', 'Antimicrobial Screening (MIC)', '0.06 µg/mL');

# input compound: COC(=S)NC[C@H]1CN(c2ccc(N3CCN(C(=O)CNS(C)(=O)=O)CC3)c(F)c2)C(=O)O1 [Example 43] ; wanted: its Antimicrobial Screening (MIC)
0.5 µg/mL

# repeat for COC(=S)NC[C@H]1CN(c2ccc(N3CCN(C(=O)c4ccno4)CC3)c(F)c2)C(=O)O1 [Example 44]
0.5 µg/mL

# repeat for COC(=S)NC[C@H]1CN(c2ccc(N3CCN(C(=O)c4ccc([N+](=O)[O-])o4)CC3)c(F)c2)C(=O)O1 [Example 7]
0.06 µg/mL

# repeat for COC(=S)NC[C@H]1CN(c2ccc(N3CCN(C(=S)n4ccnc4)CC3)c(F)c2)C(=O)O1 [Example 76]
0.25 µg/mL

###

Listed below: Antimicrobial Screening (MIC) values for each entry.
Test system: E. faecalis MRO 04035
test protocol: Agar dilution MIC
Format: cell-based, Enterococcus faecalis
assay setup: 35° C., 16-20 hours
Quick reminder: number only, in µg/mL, skip the unit.

Below: 3 compounds and their reported Antimicrobial Screening (MIC).
INSERT INTO results (compound, readout_number) VALUES
  ('COC(=S)NC[C@H]1CN(c2ccc(N3CCN(C(=O)c4ccc([N+](=O)[O-])o4)CC3)c(F)c2)C(=O)O1 [Example 7]', 0.125),
  ('COC(=S)NC[C@H]1CN(c2ccc(N3CCN(C(=O)c4ccc(N)nc4)CC3)c(F)c2)C(=O)O1 [Example 37]', 0.25),
  ('COC(=S)NC[C@H]1CN(c2ccc(N3CCN(C(=O)C=Cc4ccc([N+](=O)[O-])o4)CC3)c(F)c2)C(=O)O1 [Example 40]', 0.25);

# input compound: COC(=S)NC[C@H]1CN(c2ccc(N3CCN(C(=O)CNS(C)(=O)=O)CC3)c(F)c2)C(=O)O1 [Example 43] ; wanted: its Antimicrobial Screening (MIC)
0.25

# repeat for COC(=S)NC[C@H]1CN(c2ccc(N3CCN(C(=O)c4cccnc4)CC3)c(F)c2)C(=O)O1 [Example 2]
0.5

# repeat for COC(=S)NC[C@H]1CN(c2ccc(N3CCN(C(=S)n4ccnc4)CC3)c(F)c2)C(=O)O1 [Example 76]
0.25

# repeat for COC(=S)NC[C@H]1CN(c2ccc(N3CCN(C(=O)c4ccno4)CC3)c(F)c2)C(=O)O1 [Example 44]
0.25

###

Tested on: S. epidermidis MRO 02002
test protocol: Agar dilution MIC
Assay type: cell-based
assay setup: 35° C., 16-20 hours
Simple rule here: Antimicrobial Screening (MIC) less than 0.2 µg/mL is true (1), otherwise false (0).

INSERT INTO assay_data (compound, test_target, discrete_label) VALUES
  ('COC(=S)NC[C@H]1CN(c2ccc(N3CCN(C(=S)n4ccnc4)CC3)c(F)c2)C(=O)O1 [Example 76]', 'S. epidermidis MRO 02002', 'false (0)'),
  ('COC(=S)NC[C@H]1CN(c2ccc(N3CCN(C(=O)c4ccno4)CC3)c(F)c2)C(=O)O1 [Example 44]', 'S. epidermidis MRO 02002', 'false (0)'),
  ('COC(=S)NC[C@H]1CN(c2ccc(N3CCN(C(=O)CNS(C)(=O)=O)CC3)c(F)c2)C(=O)O1 [Example 43]', 'S. epidermidis MRO 02002', 'false (0)'),
  ('COC(=S)NC[C@H]1CN(c2ccc(N3CCN(C(=O)c4ccc(N)nc4)CC3)c(F)c2)C(=O)O1 [Example 37]', 'S. epidermidis MRO 02002', 'false (0)');

Would you kindly verify if Antimicrobial Screening (MIC) of COC(=S)NC[C@H]1CN(c2ccc(N3CCN(C(=O)c4cccnc4)CC3)c(F)c2)C(=O)O1 [Example 2] is strictly less than 0.2 µg/mL?
false (0)

# repeat for COC(=S)NC[C@H]1CN(c2ccc(N3CCN(C(=O)C=Cc4ccc([N+](=O)[O-])o4)CC3)c(F)c2)C(=O)O1 [Example 40]
true (1)

# repeat for COC(=S)NC[C@H]1CN(c2ccc(N3CCN(C(=O)c4ccc([N+](=O)[O-])o4)CC3)c(F)c2)C(=O)O1 [Example 7]
true (1)

###

Tested on: S. aureus ATCC 29213
test protocol: Agar dilution MIC
Assay type: cell-based, Staphylococcus aureus
assay setup: 35° C., 16-20 hours
metric: Antimicrobial Screening (MIC) (µg/mL)
Quick reminder: number only, in µg/mL, skip the unit.

Below: 2 molecules and their reported Antimicrobial Screening (MIC).
INSERT INTO results (line_notation, readout_number) VALUES
  ('COC(=S)NC[C@H]1CN(c2ccc(N3CCN(C(=O)C=Cc4ccc([N+](=O)[O-])o4)CC3)c(F)c2)C(=O)O1', 0.25),
  ('COC(=S)NC[C@H]1CN(c2ccc(N3CCN(C(=O)c4ccc(N)nc4)CC3)c(F)c2)C(=O)O1', 0.5);

Now consider the entry below.
# input molecule: COC(=S)NC[C@H]1CN(c2ccc(N3CCN(C(=O)CNS(C)(=O)=O)CC3)c(F)c2)C(=O)O1 ; wanted: its Antimicrobial Screening (MIC)
0.5

###

Tested on: M. catarrhalis ATCC 43628
test protocol: Agar dilution MIC
Format: cell-based, Moraxella catarrhalis
assay setup: 35° C., 16-20 hours
metric: Antimicrobial Screening (MIC) (µg/mL)
Quick reminder: number only, in µg/mL, skip the unit.

INSERT INTO results (compound, scale_unit, readout_number) VALUES
  ('COC(=S)NC[C@H]1CN(c2ccc(N3CCN(C(=O)c4ccc(N)nc4)CC3)c(F)c2)C(=O)O1 [Example 37]', 'µg/mL', 1),
  ('COC(=S)NC[C@H]1CN(c2ccc(N3CCN(C(=O)c4ccno4)CC3)c(F)c2)C(=O)O1 [Example 44]', 'µg/mL', 1);

Now consider the entry below.
# input compound: COC(=S)NC[C@H]1CN(c2ccc(N3CCN(C(=S)n4ccnc4)CC3)c(F)c2)C(=O)O1 [Example 76] ; wanted: its Antimicrobial Screening (MIC)
1
